The reader will find reported Signal/background values listed item by item below.
Target: T1, STXBP5 peptide complexed with HLA-A*02:01 on T2 cells (human)
T1 construct: whole, on cells
Assay: flow cytometry, peptide-loaded T2 cells;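 note: binding of single-chain Fv antibody constructs, raised in XenoMouse, to peptide-pulsed T2 cells measured by flow cytometry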
ASSAY READOUT: Signal/background

| BINDER | ASSAY READOUT | VALUE |
| --- | --- | --- |
| 18089-B2 (scFv, scFv in bacterial lysate, detected with anti-Flag M2) scFv: EVQLLESGGGLVQPGGSLRLSCAASGFTFSSYAMSWVRQAPGRGLEWVSTISISGGSTNYADSVKGRFTISRDNSKNTLYLQMNSLRAEDTAVYYCAKDGGSGWFPKLLHYGLDVWGQGTTVTVSSGGGGSGGGGSGGGGSELQMTQSPSSLSASVGDRVTITCQASQDISNYLNWYQQKPGKAPKLLIYAASSLQSGVPSRFSGSGSGTDFTLTISSLQPEDFATYYCQQSYSIPLTFGGGTKVEIK | Signal/background | 1 |
| 18179-E1 (scFv, scFv in bacterial lysate, detected with anti-Flag M2) scFv: EVQLLESGGGLVQPGGSLRLSCAASGFTFSNAWMSWVRQAPGKGLEWVGRIKGNTYGGTTDYAAPVKGRFTISRDDSKNTLYLQMNSLKTEDTAVYYCTTPSYSGSYYNYFSVMDVWGQGTTVTVSSGGGGSGGGGSGGGGSELVMTQSPSSLSASVGDRVTITCRTSQSISSYLNWYQQKPGRAPKLLIFAASSLQGGVPSRFSGSGSGTDFTLTISSLQPEDFATYYCQQTYSMPFTFGPGTKVDIK | Signal/background | 1 |
| 18182-E10 (scFv, scFv in bacterial lysate, detected with anti-Flag M2) scFv: EVQLLESGGGLVQPGGSLRLSCAASGFTFSSHAMSWVRQAPGQGLEWVSSISGSGGGTYYAASVKGRFTISRDNSKNTLYLQMNSLRAEDTAVYYCATGKGVHLNFDYWGQGTLVTVSSGGGGSGGGGSGGGGSELALTQPASASVAPGQTARITCGGNNIGSKSVHWHQQKPGQAPVLVVYDDNDRPSGIPERFSGSNSGNTATLTISRVEAGDEADFYCQVWDSSSDHVVFGGGTKLTVL | Signal/background | 0.8 |
